system: strain B, fluoroquinolone-resistant clinical isolate of Streptococcus pneumoniae; assay: In vitro antibacterial activity (MIC), microdilution broth method (NCCLS), strain B; type: cell-based; conditions: read-out: In vitro Antibacterial Activity MIC, B
Readout kind: MIC (µg/mL)
// return numeric value only (unit: µg/mL, not printed)

[Q] Report MIC for COc1c(N2C[C@@H]3ON=C(c4ccccn4)[C@@H]3C2)c(F)cc2c(=O)c(C(=O)O)cn(C3CC3)c12 (relative stereo) [ID No. 122] please.
[A] 16

[Q] Report MIC for COc1ccc(C2=NOC3CN(c4nc5c(cc4F)c(=O)c(C(=O)O)cn5-c4ccc(F)cc4F)CC23)cn1 (stereo not shown) [ID No. 102] please.
[A] 4

[Q] Report MIC for O=C(O)c1cn(C2CC2)c2cc(N3CC4ON=C(c5ccccn5)C4C3)c(F)cc2c1=O (stereo not shown) [ID No. 135] please.
[A] 8

[Q] Report MIC for O=C(O)c1cn(-c2ccc(F)cc2F)c2nc(N3CC4ON=C(c5cccnc5)C4C3)c(F)cc2c1=O (stereo not shown) [ID No. 105] please.
[A] 0.5

[Q] Report MIC for O=C(O)c1cn(C2CC2)c2nc(N3CC4ON=C(c5ccccn5)C4C3)c(F)cc2c1=O (stereo not shown) [ID No. 113] please.
[A] 16

###

Test system: strain C, fluoroquinolone-resistant clinical isolate of Streptococcus pneumoniae
Assay: In vitro antibacterial activity (MIC), microdilution broth method (NCCLS), strain C
Format: cell-based
Settings: read-out: In vitro Antibacterial Activity MIC, C
Procedure: Minimal inhibitory concentration (MIC) has been an indicator of in vitro antibacterial activity widely used in the art. The in vitro antimicrobial activity of representative compounds of the present invention was determined by the microdilution broth method following the test method from the National Committee for Clinical Laboratory Standards (NCCLS). […] Following inoculation of the microdilution trays, the trays are incubated at 35° C. for 16-20 hours and then read. […]
Readout kind: MIC

[Q] Identify the measured MIC of O=C(O)c1cn(-c2ccc(F)cc2F)c2nc(N3CC4ON=C(CO)C4C3)c(F)cc2c1=O (stereo not shown) for strain C, fluoroquinolone-resistant clinical isolate of Streptococcus pneumoniae.
[A] > 16 µg/mL

[Q] Identify the measured MIC of COc1ccc(C2=NOC3CN(c4nc5c(cc4F)c(=O)c(C(=O)O)cn5-c4ccc(F)cc4F)CC23)cn1 (stereo not shown) for strain C, fluoroquinolone-resistant clinical isolate of Streptococcus pneumoniae.
[A] 16 µg/mL

[Q] Identify the measured MIC of COc1c(N2C[C@@H]3ON=C(c4cccnc4)[C@@H]3C2)c(F)cc2c(=O)c(C(=O)O)cn(C3CC3)c12 (relative stereo) for strain C, fluoroquinolone-resistant clinical isolate of Streptococcus pneumoniae.
[A] 8 µg/mL

[Q] Identify the measured MIC of C[C@H]1COc2c(N3CC4ON=C(c5ccccn5)C4C3)c(F)cc3c(=O)c(C(=O)O)cn1c23 (stereo partly shown) for strain C, fluoroquinolone-resistant clinical isolate of Streptococcus pneumoniae.
[A] 16 µg/mL

[Q] Identify the measured MIC of CCOC(=O)C1=NOC2CN(c3c(F)cc4c(=O)c(C(=O)O)cn5c4c3OC[C@@H]5C)CC12 (stereo partly shown) for strain C, fluoroquinolone-resistant clinical isolate of Streptococcus pneumoniae.
[A] > 16 µg/mL

[Q] Identify the measured MIC of O=C(O)c1cn(C2CC2)c2cc(N3CC4ON=C(c5ccccn5)C4C3)c(F)cc2c1=O (stereo not shown) for strain C, fluoroquinolone-resistant clinical isolate of Streptococcus pneumoniae.
[A] 2 µg/mL

[Q] Identify the measured MIC of COc1ccc(C2=NOC3CN(c4nc5c(cc4F)c(=O)c(C(=O)O)cn5C4CC4)CC23)cn1 (stereo not shown) for strain C, fluoroquinolone-resistant clinical isolate of Streptococcus pneumoniae.
[A] 4 µg/mL

###

tested on: strain C, fluoroquinolone-resistant clinical isolate of Streptococcus pneumoniae; assay: In vitro antibacterial activity (MIC), microdilution broth method (NCCLS), strain C; format: cell-based; settings: read-out: In vitro Antibacterial Activity MIC, C
Record form. Attribute: MIC. Fill in for each entry.

[Q] Report MIC for COc1c(N2CC3ON=C(CN)C3C2)c(F)cc2c(=O)c(C(=O)O)cn(C3CC3)c12 (stereo not shown) [ID No. 202] please.
[A] 16 µg/mL

[Q] Report MIC for O=C(O)c1cn(C2CC2)c2nc(N3CC4ON=C(c5ccncc5)C4C3)c(F)cc2c1=O (stereo not shown) [ID No. 115] please.
[A] 8 µg/mL

[Q] Report MIC for COc1ccc(C2=NOC3CN(c4c(F)cc5c(=O)c(C(=O)O)cn([C@@H]6C[C@@H]6F)c5c4OC)CC23)cc1 (relative stereo) [ID No. 126] please.
[A] 4 µg/mL

[Q] Report MIC for O=C(O)c1cn(C2CC2)c2nc(N3CC4ON=C(c5ccc(C(F)(F)F)nc5)C4C3)c(F)cc2c1=O (stereo not shown) [ID No. 112] please.
[A] > 16 µg/mL

###

Test system: strain B, fluoroquinolone-resistant clinical isolate of Streptococcus pneumoniae
Assay: In vitro antibacterial activity (MIC), microdilution broth method (NCCLS), strain B
Type: cell-based
Conditions: read-out: In vitro Antibacterial Activity MIC, B
Protocol: Minimal inhibitory concentration (MIC) has been an indicator of in vitro antibacterial activity widely used in the art. The in vitro antimicrobial activity of representative compounds of the present invention was determined by the microdilution broth method following the test method from the National Committee for Clinical Laboratory Standards (NCCLS). […] Following inoculation of the microdilution trays, the trays are incubated at 35° C. for 16-20 hours and then read. […]
Readout kind: MIC (µg/mL)
// return numeric value only (unit: µg/mL, not printed)

[Q] Identify the measured MIC of O=C(O)c1cn(-c2ccc(F)cc2F)c2nc(N3CC4ON=C(c5ccc(Cl)cc5)C4C3)c(F)cc2c1=O (stereo not shown) for strain B, fluoroquinolone-resistant clinical isolate of Streptococcus pneumoniae.
[A] 1

[Q] Identify the measured MIC of COc1c(N2C[C@@H]3ON=C(c4ccc(C(F)(F)F)nc4)[C@@H]3C2)c(F)cc2c(=O)c(C(=O)O)cn(C3CC3)c12 (relative stereo) for strain B, fluoroquinolone-resistant clinical isolate of Streptococcus pneumoniae.
[A] 0.16

###

Record form. Attribute: MIC. Fill in for each entry.
test system: strain C, fluoroquinolone-resistant clinical isolate of Streptococcus pneumoniae; experiment: In vitro antibacterial activity (MIC), microdilution broth method (NCCLS), strain C; format: cell-based; conditions: read-out: In vitro Antibacterial Activity MIC, C
// return numeric value only (unit: µg/mL, not printed)

[Q] Identify the measured MIC of COc1ccc(C2=NO[C@H]3CN(c4c(F)cc5c(=O)c(C(=O)O)cn(C6CC6)c5c4OC)C[C@@H]23)cc1 (relative stereo) for strain C, fluoroquinolone-resistant clinical isolate of Streptococcus pneumoniae.
[A] 4

[Q] Identify the measured MIC of O=C(O)c1cn(C2CC2)c2nc(N3CC4ON=C(c5ccc(Cl)cc5)C4C3)c(F)cc2c1=O (stereo not shown) for strain C, fluoroquinolone-resistant clinical isolate of Streptococcus pneumoniae.
[A] 8

[Q] Identify the measured MIC of COc1ccc(C2=NOC3CN(c4c(F)cc5c(=O)c(C(=O)O)cn(-c6nc(N)c(F)cc6F)c5c4Cl)CC23)cc1 (stereo not shown) for strain C, fluoroquinolone-resistant clinical isolate of Streptococcus pneumoniae.
[A] 8

[Q] Identify the measured MIC of O=C(O)c1cn(-c2ccc(F)cc2F)c2nc(N3CC4ON=C(c5ccccn5)C4C3)c(F)cc2c1=O (stereo not shown) for strain C, fluoroquinolone-resistant clinical isolate of Streptococcus pneumoniae.
[A] 2

###

tested on: strain B, fluoroquinolone-resistant clinical isolate of Streptococcus pneumoniae; assay: In vitro antibacterial activity (MIC), microdilution broth method (NCCLS), strain B; type: cell-based; conditions: read-out: In vitro Antibacterial Activity MIC, B
Record form. Attribute: MIC. Fill in for each entry.
// return numeric value only (unit: µg/mL, not printed)

[Q] Identify the measured MIC of O=C(O)c1cn(-c2ccc(F)cc2F)c2nc(N3CC4ON=C(c5ccccn5)C4C3)c(F)cc2c1=O (stereo not shown) for strain B, fluoroquinolone-resistant clinical isolate of Streptococcus pneumoniae.
[A] 0.5

[Q] Identify the measured MIC of O=C(O)c1cn(C2CC2)c2nc(N3CC4ON=C(CO)C4C3)c(F)cc2c1=O (stereo not shown) for strain B, fluoroquinolone-resistant clinical isolate of Streptococcus pneumoniae.
[A] 16

[Q] Identify the measured MIC of O=C(O)c1cn(C2CC2)c2cc(N3CC4ON=C(c5cccnc5)C4C3)c(F)cc2c1=O (stereo not shown) for strain B, fluoroquinolone-resistant clinical isolate of Streptococcus pneumoniae.
[A] 8

[Q] Identify the measured MIC of COc1c(N2C[C@@H]3ON=C(c4cccnc4)[C@@H]3C2)c(F)cc2c(=O)c(C(=O)O)cn(C3CC3)c12 (relative stereo) for strain B, fluoroquinolone-resistant clinical isolate of Streptococcus pneumoniae.
[A] 8

[Q] Identify the measured MIC of COc1ccc(C2=NOC3CN(c4cc5c(cc4F)c(=O)c(C(=O)O)cn5C4CC4)CC23)cn1 (stereo not shown) for strain B, fluoroquinolone-resistant clinical isolate of Streptococcus pneumoniae.
[A] 16

[Q] Identify the measured MIC of O=C(O)c1cn(C2CC2)c2nc(N3CC4ON=C(c5ccncc5)C4C3)c(F)cc2c1=O (stereo not shown) for strain B, fluoroquinolone-resistant clinical isolate of Streptococcus pneumoniae.
[A] 16

[Q] Identify the measured MIC of O=C(O)c1cn(C2CC2)c2nc(N3CC4ON=C(c5ccc(C(F)(F)F)nc5)C4C3)c(F)cc2c1=O (stereo not shown) for strain B, fluoroquinolone-resistant clinical isolate of Streptococcus pneumoniae.
[A] 16

[Q] Identify the measured MIC of COc1ccc(C2=NOC3CN(c4nc5c(cc4F)c(=O)c(C(=O)O)cn5C4CC4)CC23)cn1 (stereo not shown) for strain B, fluoroquinolone-resistant clinical isolate of Streptococcus pneumoniae.
[A] 8

[Q] Identify the measured MIC of O=C(O)c1cn(-c2ccc(F)cc2F)c2nc(N3CC4ON=C(c5ccc(C(F)(F)F)nc5)C4C3)c(F)cc2c1=O (stereo not shown) for strain B, fluoroquinolone-resistant clinical isolate of Streptococcus pneumoniae.
[A] 8
